target: T1, Biotinylated human VEGF-165 (Acro Biosystem) (human, UniProt P15692 207-395, biotinylated (site not stated)); experiment: BLI, biotinylated antigen on streptavidin tips, 1:1 global fit
T1 construct: Bought protein; also called human VEGFA
T1 sequence (P15692 other isoform, or with tags, fused parts or gaps): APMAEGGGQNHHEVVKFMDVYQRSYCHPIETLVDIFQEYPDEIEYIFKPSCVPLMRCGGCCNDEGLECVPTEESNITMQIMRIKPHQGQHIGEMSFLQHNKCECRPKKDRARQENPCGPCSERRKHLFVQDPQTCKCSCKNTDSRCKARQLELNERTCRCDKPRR
reported-property: koff (s⁻¹)
// units = s⁻¹; emit number, no label

Below, each entry is followed by its recorded koff result.
binder | koff, s⁻¹
21A8.1 (VHH, Autonomous humanised VH domain (DotBody), from the 16C2.1-based library with heat challenge; E. coli, ATG codon 5' (possible initiator Met), 3' hexahistidine tag; also called DotBody 21A8.1) VHH: EVQLVESGGGLVQPGGSLRLSCAISGFSVDATDIDWVRQAPGKGLEWVARIFSPSGFTDYADSVKGRFTISADTSKNTVYLQMNSLRAEDTAVYYCDRPEFYAYNIFHDPRTVPAGNYRGQGTLVTVSS | 0.00118
20A3.1 (VHH, Autonomous humanised VH domain (DotBody), from the 16A2.1-based library with heat challenge; E. coli, ATG codon 5' (possible initiator Met), 3' hexahistidine tag; also called DotBody 20A3.1) VHH: EVQLVESGGGLVQPGGSLRLSCAISGFSLADTDIDWVRQAPGKGLEWVARIFSSSGSTYYADSVKGRFTISADTSKNTVYLQMNSLRAEDTAVYYCDRADSVGYNVIFPGSTYSRSGYRGQGTLVTVSS | 0.000725
16A6.1 (VHH, E. coli, ATG codon 5' (possible initiator Met), 3' hexahistidine tag; also called clone 16A6.1) VHH: EVQLVESGGGLVQPGGSLRLSCAISGFSLAATDIDWVRQAPGKGLEWVARIFPFSGSTDYTDSVKGRFTISADTSKNTVYLQMNSLRAEDTAVYYCGRSDSYSYNVFLHDPAYTALDYRGQGTLVTVSS | 0.00136

Form field koff, entry 21A1.1 (VHH, Autonomous humanised VH domain (DotBody), from the 16C2.1-based library with heat challenge; E. coli, ATG codon 5' (possible initiator Met), 3' hexahistidine tag; also called DotBody 21A1.1) VHH: EVQLVESGGGLVQPGGSLRLSCAISGFALATTDIDWVRQAPGKGLEWVARIFNPSDFTDYADSVKGRFTISADTSKNTVYLQMNSLRAEDTAVYYCGRPAVYGYNIFLDSPTYDASQYRGQGTLVTVSS : 0.00103
